melting point: recorded values

>  <molecule>
Cc1nc(Cl)c2c(C)c(C)sc2n1

>  <melting point>
115 to 116 °C

$$$$
>  <molecule>
CC(=O)c1cccc(N=C=S)c1

>  <melting point>
26 to 28 °C

$$$$
>  <molecule>
CCCCCc1ccc(C(=O)O)cc1

>  <melting point>
85 to 90 °C

$$$$
>  <molecule>
CCOC(=O)CSc1ncc(C(=O)OC)n1C

>  <melting point>
35 to 36 °C

$$$$
>  <molecule>
CCOC(=O)CC(=O)C=P(c1ccccc1)(c1ccccc1)c1ccccc1

>  <melting point>
101 to 106 °C

$$$$
>  <molecule>
NC(=S)c1ccc(C2OCCO2)cc1

>  <melting point>
150 to 154 °C

$$$$
>  <molecule>
COC1OC(=O)c2ccccc21 (centres undefined)

>  <melting point>
43.7 to 44.4 °C

$$$$
>  <molecule>
NC(Cc1cc(F)ccc1F)C(=O)O (racemic)

>  <melting point>
252 to 253 °C

$$$$
>  <molecule>
CCCCOc1ccc(/C=N/c2ccc(C(C)=O)cc2)cc1

>  <melting point>
80 to 128 °C

$$$$
>  <molecule>
OCc1cccc2cccc(CO)c12

>  <melting point>
155 to 158 °C

$$$$
>  <molecule>
O=C(O)COc1ccc(OCC(=O)O)cc1

>  <melting point>
248 to 251 °C

$$$$
>  <molecule>
Cc1nc(/C(C#N)=C\c2ccco2)sc1/N=N/c1ccccc1[N+](=O)[O-]

>  <melting point>
212 to 213 °C

$$$$
>  <molecule>
O=C(Nc1cccnc1Cl)c1ccccc1

>  <melting point>
91 to 92 °C

$$$$
>  <molecule>
Cc1cc2ncc(C(=O)O)c(C)n2n1

>  <melting point>
250 to 251 °C

$$$$

###

As shown below, each of these molecules has a reported melting point value.

>  <molecule>
O=Cc1ccc(OP(=S)(Oc2ccc(C=O)cc2)Oc2ccc(C=O)cc2)cc1

>  <melting point>
115 to 119 °C

$$$$
>  <molecule>
COc1ccc(Br)cc1CO

>  <melting point>
68 to 73 °C

$$$$
>  <molecule>
CCOC(=O)ON=C(C(=O)c1ccccc1)c1ccccc1

>  <melting point>
73 to 75 °C

$$$$
>  <molecule>
CCC(C)C(N)CO (centres undefined)

>  <melting point>
36 to 39 °C

$$$$
>  <molecule>
CCCCCCCCCCCCOS(=O)(=O)c1ccc(C)cc1

>  <melting point>
28.5 to 31.5 °C

$$$$
>  <molecule>
N#Cc1ccc(N2CCC(C(=O)NN)CC2)cc1

>  <melting point>
198 to 202 °C

$$$$
>  <molecule>
O=C1c2ccccc2C(=O)N1CCCCCCCCBr

>  <melting point>
49 to 56 °C

$$$$
>  <molecule>
O=[N+]([O-])c1ccc(C(O)CNCc2ccccc2)cc1 (centres undefined)

>  <melting point>
133 to 134 °C

$$$$
>  <molecule>
S=P(N1CC1)(N1CC1)N1CC1

>  <melting point>
54 to 57 °C

$$$$
>  <molecule>
COc1cc2c(cc1OC)C(=S)NCC2

>  <melting point>
223 to 226 °C

$$$$
>  <molecule>
CCOc1cc2c(cc1OCC)C(=S)NCC2

>  <melting point>
150 to 152 °C

$$$$
>  <molecule>
O=C(O)c1ccccc1C(=O)O

>  <melting point>
200 to 205 °C

$$$$
>  <molecule>
CCOC(=O)c1sc(C)nc1-c1ccccc1

>  <melting point>
44 to 47 °C

$$$$
>  <molecule>
Nc1c(S(=O)(=O)c2ccccc2)csc1C(=O)O

>  <melting point>
174 to 176 °C

$$$$
>  <molecule>
O=C(Cl)c1ccsc1Br

>  <melting point>
61 to 62 °C

$$$$
>  <molecule>
Cc1cc(Br)cnc1Cl

>  <melting point>
40 to 44 °C

$$$$
>  <molecule>
CCOC(=O)C=Cc1ccc(O)c(OC)c1

>  <melting point>
57 to 59 °C

$$$$
>  <molecule>
O=[N+]([O-])c1ccc(O)cc1F

>  <melting point>
92 to 95 °C

$$$$
>  <molecule>
O=C(O)c1ncccc1O

>  <melting point>
208 to 212 °C

$$$$
>  <molecule>
O=[N+]([O-])c1ccc(Oc2c(Cl)cccc2Cl)c(Cl)c1

>  <melting point>
136 to 138 °C

$$$$
>  <molecule>
CCCCc1ccc(C(N)=O)cc1

>  <melting point>
127 to 129 °C

$$$$
>  <molecule>
O=c1[nH]c(=O)n(-c2cccc(C(F)(F)F)c2)c2c1CCCC2

>  <melting point>
252 to 255 °C

$$$$
>  <molecule>
O=S(=O)(Cl)c1ccc(-c2cc(C(F)(F)F)on2)s1

>  <melting point>
106 to 107 °C

$$$$
>  <molecule>
Cc1nc2ccc(N)cc2s1

>  <melting point>
122 to 124 °C

$$$$

Every entry's value here was drawn from a melting point compilation (Tetko et al.).
